assayTarget: human JAK2 (a.a. 828-1132) (Homo sapiens, UniProt O60674)
Construct: JAK2 (a.a. 828-1132); His tag (N); made in house; host or cells: insect cells (baculovirus)
Sequence (O60674 828-1132): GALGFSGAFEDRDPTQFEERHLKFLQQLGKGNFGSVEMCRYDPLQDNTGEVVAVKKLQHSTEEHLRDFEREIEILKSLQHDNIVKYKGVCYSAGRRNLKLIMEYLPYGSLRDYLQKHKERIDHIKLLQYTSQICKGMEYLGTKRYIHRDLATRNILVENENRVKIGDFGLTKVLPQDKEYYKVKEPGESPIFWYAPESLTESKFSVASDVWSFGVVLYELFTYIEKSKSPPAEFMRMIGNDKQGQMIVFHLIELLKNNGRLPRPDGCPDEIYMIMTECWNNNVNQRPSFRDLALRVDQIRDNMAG
assayDetails: In vitro JAK kinase assay (HTRF, phosphorylation of a biotinylated peptide), JAK2
Assay type: biochemical
testSettings: Table D1
Counter-ions that a name gives are not always drawn.
measuredAttribute: pIC50
Value format note: pIC50 is -log10 of concentration (mol/L); just state the number.

Would you please give the reported pIC50 of O=C(COc1ccc2cc1CCc1cncc(c1)Nc1ncc(Cl)c(n1)N2)N1CCNCC1 [Example D229, tris(trifluoroacetate)] with human JAK2 (a.a. 828-1132) (Homo sapiens, UniProt O60674)?
6.63

Would you please give the reported pIC50 of Cc1cc(C(=O)N2CC(CC(=O)Nc3ccc4cc3CCc3cncc(c3)Nc3ncc(Cl)c(n3)N4)C2)no1 [Example D143, bis(trifluoroacetate)] with human JAK2 (a.a. 828-1132) (Homo sapiens, UniProt O60674)?
6.88

Would you please give the reported pIC50 of O=C(C[C@H]1CCN(C(=O)Nc2ccccc2)C1)Nc1ccc2cc1CCc1cncc(c1)Nc1ncc(Cl)c(n1)N2 [Example D97, bis(trifluoroacetate)] with human JAK2 (a.a. 828-1132) (Homo sapiens, UniProt O60674)?
7.08

Would you please give the reported pIC50 of Clc1cnc2nc1Nc1cccc(c1)CSCc1cccc(c1)N2 [Example D20, trifluoroacetate] with human JAK2 (a.a. 828-1132) (Homo sapiens, UniProt O60674)?
7.49
